Exercise: for every item that follows, state its recorded SKW3 WT anti-mFc 647, gMFI.
Molecular target: T1, human CD4 on cells (SKW3 cells; human PBMCs) (human, UniProt P01730 26-458)
T1 construct: whole, on cells; SKW3 CD4 knockout cells served as the negative cell line; also called hCD4
Assay: FACS confirmation, supernatant on SKW3 WT cells, anti-mouse Fc 647; background gMFI 3300
One number for each entry, in gMFI.

Some binders with recorded SKW3 WT anti-mFc 647, gMFI:
Binder	Units Text	Result Value
75110_12C19A (antibody, IgG1, V domains shown, Tested as non-clonal AlivaMab Mouse Kappa hybridoma supernatant: human variable domains and human kappa, mouse Fc) VH: EVQLVESGGGLVQPGGSLRLSCAASGFTFSSYWMSWVRQAPGKGLEWVANIKEDGSDKYYVDSVKGRFTISRDNAKNSLYLQMNSLRAEDTAVHYCVREGGQWLALDYWGQGTLVTVSS VL: DIQMTQSPSSVSGSVGDRVTITCRASQGISSWLAWYQQKPGKAPKLLIYGASSLQSGVPSRFSGSGSGTDFTLTISSLQPEDFVTYYCQQANSFPWTFGQGTKVEIK	gMFI	29300
75110_02I16A (antibody, IgG1, V domains shown, Tested as non-clonal AlivaMab Mouse Kappa hybridoma supernatant: human variable domains and human kappa, mouse Fc; also called 75110_02116A) VH: QVQLQQWGAGLLKPSETLSLTCDVYGGSFSGYYWTWIRQPPGKGLEWIGEINHSGTTNSNPSLKSRVTISVDTSKSQFSLRLSSVTAADTAVYFCTRELNWFDPWGQGTLVTVSS VL: DIQMTQSPSSVSASVGDRVTITCRASQDIANWLAWYQQKPGKAPQLLIYAASSLLGGVPSRFSGSGSGADFTLTISSLHPEDFATYYCQQANSFPYTFGQGTKLEIK	gMFI	19400

// SKW3 WT anti-mFc 647, gMFI value for 75110_13C13A (antibody, IgG1, V domains shown, Tested as non-clonal AlivaMab Mouse Kappa hybridoma supernatant: human variable domains and human kappa, mouse Fc) VH: QVQLQQWGAGLLKPSETLSLTCAVSGGSFSGYYWSWIRQPPGKGLEWIGEINHSGSTNCNPSLKSRVTISVDTSKNQFSLKLSSVTAADTAMYYCARVLNFFDYWGQGTLVTVSS VL: DIQMTQTPSSVSASVGDRVTITCRASPGISNWLAWYQQKPGKAPELLIYAASSLQSGVPSRFSGSGSGTDFTLTISSLQPEDFATYFCQQANSFPLTFGGGTKVESK : 23900
